assay: Therapeutic index, ratio of MCC50 for human HeLa cells to MIC for inhibition of flavodoxin in Helicobacter pylori ATCC 700392 26695 assessed as reduction in bacterial growth; format: toxicity; settings: HeLa cells versus Helicobacter pylori ATCC 700392 26695, read-out: TI
Test readout: selectivity ratio

For orientation, consider the following solved cases.
- Cc1ncc([N+](=O)[O-])n1CCO: > 83
- Cc1ncc(N)n1CCO: > 2.2
- O=[N+]([O-])/C=C/c1cc(C(F)(F)F)cc(C(F)(F)F)c1: 8.3
- NCCc1cc(C(F)(F)F)cc(C(F)(F)F)c1: > 16
- O=[N+]([O-])/C=C/c1c(F)cc(Cl)cc1F: 16

Which selectivity ratio reading was recorded for the compound COc1ccc(C[S+]([O-])c2ccc(N)c3nonc23)cc1 (centres undefined) ?
> 39

Endpoint output: selectivity ratio of COc1ccc(CS(=O)(=O)c2ccc(N)c3nonc23)cc1 . Value?
> 10

Data request, read-out selectivity ratio, for O=[N+]([O-])CCc1cc(C(F)(F)F)cc(C(F)(F)F)c1
> 18

Query: selectivity ratio; subject: NCCc1ccccc1
> 15
